The reported measurements were obtained from PubChem BioAssay (NCATS).

- Test system: Aldehyde dehydrogenase 1A1 (Homo sapiens) (UniProt P00352)
- Assay notes: qHTS for Inhibitors of the Aldehyde Dehydrogenase Family (ALDH1A1) Confirmatory screens (AID 2061316); also: nearly all actives have a fitted effect of over 65% in size
- Measurement conditions: ALDH inhibition qHTS; series mostly up to 47.3 µM
Results filed as inconclusive are left out. The source made the active and inactive calls. Calls follow the shape of the dose curve; as a rule, active = well fitted inhibition curve with a large enough effect; inconclusive = small, poorly fitted or top-dose-only effect; inactive = no such curve, though single readings can be large or run the other way.
Outcome (select one): y for active, n for inactive

Prompt: Just curious, what result did CC(C)c1ccc(NC(=O)N2CCN(c3ccc(Cl)c(Cl)c3)CC2)cc1 get here?
Response: n

Prompt: Just curious, what result did O=C1CCCC2=C1C1(CCC1)N=C(Nc1nc3ccccc3o1)N2 get here?
Response: n

Prompt: Just curious, what result did Cc1cc(NC(=O)Nc2nnc(-c3ccncc3)s2)ccc1Br get here?
Response: y

Prompt: Just curious, what result did N#Cc1c(-c2cccc([N+](=O)[O-])c2)no[n+]1[O-] get here?
Response: y

Prompt: Just curious, what result did CC(=O)Nc1ncc(S(=O)(=O)Nc2cnccc2C(=O)Nc2nc(-c3ccccc3)cs2)s1 get here?
Response: y

----------
- Test system: Retinaldehyde dehydrogenase 3 (Homo sapiens) (UniProt P47895)
- Assay notes: qHTS for Inhibitors of the Aldehyde Dehydrogenase Family (ALDH1A3) Validation screen (AID 2061312); also: nearly all actives have a fitted effect of over 45% in size
- Measurement conditions: ALDH1A3 enzyme inhibition qHTS validation, fluorescence; series mostly up to 84.7 µM
Results filed as inconclusive are left out. Activity calls are given as the source filed them. The call rests on the fitted dose curve; in most records, active means well fitted inhibition curve with a large enough effect; inconclusive means small, poorly fitted or top-dose-only effect; inactive means no such curve, though single readings can be large or run the other way.
Quantity measured: outcome

[[record]]
compound = "CC[C@H]1OC(=O)[C@H](C)[C@@H](O[C@H]2C[C@@](C)(OC)[C@@H](O)[C@H](C)O2)[C@H](C)[C@@H](O[C@@H]2O[C@H](C)C[C@H](N(C)C)[C@H]2O)[C@](C)(O)C[C@@H](C)C(=O)[C@H](C)[C@H]2OC(=O)O[C@@]21C"
quantity_measured = "outcome"
assay_value = "inactive"

[[record]]
compound = "Cn1ncc(Cl)c1-c1cc(C(=O)NC(CN)Cc2ccc(F)c(F)c2)oc1Cl (stereo not drawn)"
quantity_measured = "outcome"
assay_value = "inactive"

[[record]]
compound = "CC(C)[C@@](C)(O)[C@@H]1CN(c2nc(-c3[nH]nc4ncccc34)c(F)cc2Cl)CCN1"
quantity_measured = "outcome"
assay_value = "inactive"


----------
- Assay notes: qHTS for Inhibitors of the Aldehyde Dehydrogenase Family (ALDH1A2, ALDH1A3, ALDH2, ALDH3A1) (AID 2061307); also: nearly all actives have a fitted effect of over 50% in size
- Measurement conditions: ALDH inhibition qHTS; series mostly up to 50.3 µM
Records with an inconclusive call do not appear. Calls of active or inactive are those of the source. The call rests on the fitted dose curve; in most records, active means well fitted inhibition curve with a large enough effect; inconclusive means small, poorly fitted or top-dose-only effect; inactive means no such curve, though single readings can be large or run the other way.
Outcome (select one): 1 = active, -1 = inactive

Prompt: Just curious, what result did O=C(NCc1ccccn1)c1ccc2nnc(-c3ccc(OC(F)(F)F)cc3)n2c1 get here?
Response: -1

Prompt: Just curious, what result did Cc1ccsc1CN(C)c1ncnc2ccc(-c3ccoc3)cc12 get here?
Response: -1

Prompt: Just curious, what result did O=C(Nc1cccnc1)c1nccs1 get here?
Response: -1

Prompt: Just curious, what result did Clc1ccc(Cn2cnc3ccccc32)cc1 get here?
Response: 1

Prompt: Just curious, what result did c1cc2c(cc1CNc1ccc(N3CCCCC3)cc1)OCO2 get here?
Response: 1

Prompt: Just curious, what result did COc1ccc(C2c3c(N)nc(CCc4ccccc4)nc3Oc3ccc4ccccc4c32)cc1OC (stereo not drawn) get here?
Response: -1

Prompt: Just curious, what result did Cc1ccc(CNc2ncnc3c2oc2ccccc23)cc1 get here?
Response: -1

Prompt: Just curious, what result did CCOC(=O)C1CCN(C(=O)C(C)(C)NC(=O)Nc2ccc(N)cc2)CC1 get here?
Response: -1

Prompt: Just curious, what result did O=C(O)c1csc(-n2[nH]c(-c3ccc(F)c(Cc4ccccc4)c3)cc2=O)n1 get here?
Response: 1

Prompt: Just curious, what result did COc1ccc(C2Nc3ccc(Cl)cc3C(=O)N2Cc2ccccc2)cc1COc1ccc(NC(C)=O)cc1 (stereo not drawn) get here?
Response: 1

Prompt: Just curious, what result did COc1ccc(-c2nc3ccccc3c(=O)n2Cc2ccco2)cc1COc1ccc(NC(C)=O)cc1 get here?
Response: 1

Prompt: Just curious, what result did COc1ccc(OC)c(NC(=O)c2cccc(Nc3ncccn3)c2)c1 get here?
Response: -1

Prompt: Just curious, what result did Oc1[nH]c2ccccc2c1N=NC(=S)Nc1ccc2c(c1)CCC2 get here?
Response: -1

Prompt: Just curious, what result did N#Cc1c(-c2ccc(Br)cc2)no[n+]1[O-] get here?
Response: 1

Prompt: Just curious, what result did COc1ccc([N+](=O)[O-])c(S(=O)(=O)c2ccc(C)cc2)n1 get here?
Response: 1

Prompt: Just curious, what result did Cc1ccc(S(=O)(=O)Nc2cnccc2C(=O)Nc2nc(C(=O)O)cs2)cc1 get here?
Response: -1

Prompt: Just curious, what result did COc1ccc(C2Nc3ccccc3C(=O)N2Cc2ccccc2Cl)cc1COc1ccc(NC(C)=O)cc1 (stereo not drawn) get here?
Response: 1

Prompt: Just curious, what result did O=C(Nc1ccc(C(=O)N2CCCC2)cc1)c1cccc(Cl)c1 get here?
Response: -1

Prompt: Just curious, what result did Cc1ccc(OCCCn2c(CCN)nc3ccccc32)cc1 get here?
Response: -1

Prompt: Just curious, what result did O=C(c1cccs1)c1no[n+]([O-])c1C(=O)c1cccs1 get here?
Response: 1

Prompt: Just curious, what result did CN1CCN(c2ccc(NC(=O)CN(C)Cc3c(O)ccc4ccccc34)cc2)CC1 get here?
Response: 1

Prompt: Just curious, what result did COc1ccc(F)cc1NC(=O)Cc1csc(-c2ccccc2Cl)n1 get here?
Response: -1

Prompt: Just curious, what result did Fc1ccc(Cn2cnc3ccccc32)cc1F get here?
Response: 1
